- Test system: HeLa Kyoto;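 also: synchronized HeLa Kyoto cells (double thymidine block for G1/S, nocodazole release for mitosis), protein amounts in NP-40 versus SDS lysates quantified by mass spectrometry, three biological replicates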
- runDescription: solubility change mitosis vs G1/S (difference of NP-40 vs SDS log2 ratios) (log2 ratio difference); higher = more soluble in mitosis
I'd be grateful if you could share measured solubility change mitosis (log2) for these entries.
Form rule: numeric answer, no unit written next to it.

Task item: I am curious: what solubility change mitosis (log2) value has been reported for MTKKKRENLGVALEIDGLEEKLSQCRRDLEAVNSRLHSRELSPEARRSLEKEKNSLMNKASNYEKELKFLRQENRKNMLLSVAIFILLTLVYAYWTM [CCDC167] ?
Reply: 0.231

Task item: I am curious: what solubility change mitosis (log2) value has been reported for MDDKAFTKELDQWVEQLNECKQLNENQVRTLCEKAKEILTKESNVQEVRCPVTVCGDVHGQFHDLMELFRIGGKSPDTNYLFMGDYVDRGYYSVETVTLLVALKVRYPERITILRGNHESRQITQVYGFYDECLRKYGNANVWKYFTDLFDYLPLTALVDGQIFCLHGGLSPSIDTLDHIRALDRLQEVPHEGPMCDLLWSDPDDRGGWGISPRGAGYTFGQDISETFNHANGLTLVSRAHQLVMEGYNWCHDRNVVTIFSAPNYCYRCGNQAAIMELDDTLKYSFLQFDPAPRRGEPHVTRRTPDYFL [PPP2CB] ?
Reply: -0.00731

Task item: I am curious: what solubility change mitosis (log2) value has been reported for MAESDWDTVTVLRKKGPTAAQAKSKQAILAAQRRGEDVETSKKWAAGQNKQHSITKNTAKLDRETEELHHDRVTLEVGKVIQQGRQSKGLTQKDLATKINEKPQVIADYESGRAIPNNQVLGKIERAIGLKLRGKDIGKPIEKGPRAK [EDF1] ?
Reply: 0.78

Task item: I am curious: what solubility change mitosis (log2) value has been reported for MLRLVPTGARAIVDMSYARHFLDFQGSAIPQAMQKLVVTRLSPNFREAVTLSRDCPVPLPGDGDLLVRNRFVGVNASDINYSAGRYDPSVKPPFDIGFEGIGEVVALGLSASARYTVGQAVAYMAPGSFAEYTVVPASIATPVPSVKPEYLTLLVSGTTAYISLKELGGLSEGKKVLVTAAAGGTGQFAMQLSKKAKCHVIGTCSSDEKSAFLKSLGCDRPINYKTEPVGTVLKQEYPEGVDVVYESVGGAMFDLAVDALATKGRLIVIGFISGYQTPTGLSPVKAGTLPAKLLKKSASVQGFFLNHYLSKYQAAMSHLLEMCVSGDLVCEVDLGDLSPEGRFTGLESIFRAVNYMYMGKNTGKIVVELPHSVNSKL [ZADH2] ?
Reply: -0.199

Task item: I am curious: what solubility change mitosis (log2) value has been reported for MVGSLNCIVAVSQNMGIGKNGDLPWPPLRNEFRYFQRMTTTSSVEGKQNLVIMGKKTWFSIPEKNRPLKGRINLVLSRELKEPPQGAHFLSRSLDDALKLTEQPELANKVDMVWIVGGSSVYKEAMNHPGHLKLFVTRIMQDFESDTFFPEIDLEKYKLLPEYPGVLSDVQEEKGIKYKFEVYEKND [DHFR] ?
Reply: -0.139

Task item: I am curious: what solubility change mitosis (log2) value has been reported for MTLIEGVGDEVTVLFSVLACLLVLALAWVSTHTAEGGDPLPQPSGTPTPSQPSAAMAATDSMRGEAPGAETPSLRHRGQAAQPEPSTGFTATPPAPDSPQEPLVLRLKFLNDSEQVARAWPHDTIGSLKRTQFPGREQQVRLIYQGQLLGDDTQTLGSLHLPPNCVLHCHVSTRVGPPNPPCPPGSEPGPSGLEIGSLLLPLLLLLLLLLWYCQIQYRPFFPLTATLGLAGFTLLLSLLAFAMYRP [TMUB1] ?
Reply: 0.143

Task item: I am curious: what solubility change mitosis (log2) value has been reported for MDPFLVLLHSVSSSLSSSELTELKFLCLGRVGKRKLERVQSGLDLFSMLLEQNDLEPGHTELLRELLASLRRHDLLRRVDDFEAGAAAGAAPGEEDLCAAFNVICDNVGKDWRRLARQLKVSDTKIDSIEDRYPRNLTERVRESLRIWKNTEKENATVAHLVGALRSCQMNLVADLVQEVQQARDLQNRSGAMSPMSWNSDASTSEAS [FADD] ?
Reply: -0.0735

Task item: I am curious: what solubility change mitosis (log2) value has been reported for MVAYWRQAGLSYIRYSQICAKAVRDALKTEFKANAEKTSGSNVKIVKVKKE [ATP5E] ?
Reply: 0.368

Task item: I am curious: what solubility change mitosis (log2) value has been reported for MFRRPVLQVLRQFVRHESETTTSLVLERSLNRVHLLGRVGQDPVLRQVEGKNPVTIFSLATNEMWRSGDSEVYQLGDVSQKTTWHRISVFRPGLRDVAYQYVKKGSRIYLEGKIDYGEYMDKNNVRRQATTIIADNIIFLSDQTKEKE [SSBP1] ?
Reply: 0.0149

Task item: I am curious: what solubility change mitosis (log2) value has been reported for MSALEWYAHKSLGDGIFWIQERFYESGNRANIWLVRGSEQDVVIDTGLGLRSLPEYLYSSGLLQDREAKEDAARRPLLAVATHVHFDHSGGLYQFDRVAVHHAEAEALARGDNFETVTWLSDSEVVRTPSPGWRARQFRVQAVQPTLILQDGDVINLGDRQLTVMHMPGHSRGSICLHDKDRKILFSGDVVYDGSLIDWLPYSRISDYVGTCERLIELVDRGLVEKVLPGHFNTFGAERLFRLASNYISKAGICHKVSTFAMRSLASLALRVTNSRTSP [MBLAC2] ?
Reply: 0.0124

Task item: I am curious: what solubility change mitosis (log2) value has been reported for MQDTGSVVPLHWFGFGYAALVASGGIIGYVKAGSVPSLAAGLLFGSLAGLGAYQLSQDPRNVWVFLATSGTLAGIMGMRFYHSGKFMPAGLIAGASLLMVAKVGVSMFNRPH [TMEM14C] ?
Reply: 0.206

Task item: I am curious: what solubility change mitosis (log2) value has been reported for MSLVIRNLQRVIPIRRAPLRSKIEIVRRILGVQKFDLGIICVDNKNIQHINRIYRDRNVPTDVLSFPFHEHLKAGEFPQPDFPDDYNLGDIFLGVEYIFHQCKENEDYNDVLTVTATHGLCHLLGFTHGTEAEWQQMFQKEKAVLDELGRRTGTRLQPLTRGLFGGS [YBEY] ?
Reply: 0.0965

Task item: I am curious: what solubility change mitosis (log2) value has been reported for MPVHSRGDKKETNHHDEMEVDYAENEGSSSEDEDTESSSVSEDGDSSEMDDEDCERRRMECLDEMSNLEKQFTDLKDQLYKERLSQVDAKLQEVIAGKAPEYLEPLATLQENMQIRTKVAGIYRELCLESVKNKYECEIQASRQHCESEKLLLYDTVQSELEEKIRRLEEDRHSIDITSELWNDELQSRKKRKDPFSPDKKKPVVVSGPYIVYMLQDLDILEDWTTIRKAMATLGPHRVKTEPPVKLEKHLHSARSEEGRLYYDGEWYIRGQTICIDKKDECPTSAVITTINHDEVWFKRPDGSKSKLYISQLQKGKYSIKHS [BRMS1L] ?
Reply: -0.0561

All values here come from the supplement of paper PMC5998384.
